Numbers sourced from ChEMBL document CHEMBL3785087.

molecular target: Neuronal acetylcholine receptor subunit alpha-7 (Homo sapiens); assay: […] to human alpha7 nAChR expressed in xenopus oocytes preincubated for 10 mins followed by acetylcholine addition by patch clamp electrophysiological assay relative to acetylcholine; assay type: cell-based; parameters: concentration or dose not given beside the values
Sequence (P36544 whole entry): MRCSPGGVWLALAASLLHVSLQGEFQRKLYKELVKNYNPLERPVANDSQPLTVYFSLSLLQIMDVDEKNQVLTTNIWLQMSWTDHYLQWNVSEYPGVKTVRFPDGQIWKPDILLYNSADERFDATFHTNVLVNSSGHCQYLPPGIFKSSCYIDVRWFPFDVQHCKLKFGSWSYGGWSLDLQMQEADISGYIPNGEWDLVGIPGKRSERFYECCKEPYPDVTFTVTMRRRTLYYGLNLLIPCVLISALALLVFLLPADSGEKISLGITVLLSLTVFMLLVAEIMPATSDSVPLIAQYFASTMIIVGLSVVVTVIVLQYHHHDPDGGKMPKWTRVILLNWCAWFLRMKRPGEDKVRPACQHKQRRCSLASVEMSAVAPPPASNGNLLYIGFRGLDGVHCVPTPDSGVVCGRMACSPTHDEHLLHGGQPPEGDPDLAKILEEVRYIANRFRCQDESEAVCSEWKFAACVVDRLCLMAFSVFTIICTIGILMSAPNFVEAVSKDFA
Each entry below carries its reported Activity.
Measured property: Activity

1. Cc1cccc(-c2ccc3cc(C(=O)N[C@H]4CN5CCC4CC5)cn3c2)c1
< 1%
2. O=C(N[C@H]1CN2CCC1CC2)c1cc(C(=O)c2ccc3ccccc3c2)n2ccccc12
< 1%
3. O=C(N[C@H]1CN2CCC1CC2)c1cc2cccc(Br)n2c1
64.3%
4. O=C(N[C@H]1CN2CCC1CC2)c1cc2c(-c3ccccc3)cccn2c1
< 1%
5. O=C(N[C@H]1CN2CCC1CC2)c1cc2ccc(-c3ccsc3)cn2c1
< 1%
6. Cc1nc2ccc(F)cn2c1C(=O)N[C@H]1CN2CCC1CC2
< 1%
7. O=C(N[C@H]1CN2CCC1CC2)c1cc2cccc(-c3ccc(-c4ccccc4)cc3)n2c1
18%
8. Cc1nc2c(Br)cccn2c1C(=O)N[C@H]1CN2CCC1CC2
< 1%
9. Cc1ccccc1-c1cccc2cc(C(=O)N[C@H]3CN4CCC3CC4)cn12
17.6%
10. O=C(N[C@H]1CN2CCC1CC2)c1cc(C(=O)c2ccccc2F)n2ccccc12
< 1%
11. CCOC(=O)c1cc(C(=O)c2ccccc2O)n2ccc(C(=O)N[C@H]3CN4CCC3CC4)cc12
< 1%
12. CCOC(=O)c1cc(C(=O)c2cccc(Cl)c2)n2ccc(C(=O)N[C@H]3CN4CCC3CC4)cc12
< 1%
13. O=C(N[C@H]1CN2CCC1CC2)c1cc(C(=O)c2cccc(Br)c2)n2ccccc12
< 1%
14. O=C(N[C@H]1CN2CCC1CC2)c1cc2ccc(-c3ccccc3)cn2c1
< 1%
15. CCOC(=O)c1cc(C(=O)c2ccc(F)cc2)n2ccc(C(=O)N[C@H]3CN4CCC3CC4)cc12
< 1%
16. CCOC(=O)c1cc(C(=O)c2cccc([N+](=O)[O-])c2)n2ccc(C(=O)N[C@H]3CN4CCC3CC4)cc12
< 1%
17. CCOC(=O)c1cc(C(=O)c2ccccc2)n2cc(C(=O)N[C@H]3CN4CCC3CC4)ccc12
< 1%
